system: cbb promoter; assay type: cell-based, Ralstonia eutropha; settings: Table 9, chemoautotrophic growth conditions
Attribute measured: Chemoautotrophic β-galactosidase activity

Ask: What does the record list as Chemoautotrophic β-galactosidase activity for G205D (protein) MSSFLRALTLRQLQIFVTVARHASFVRAAEELHLTQPAVSMQVKQLESVVGMALFERVKGQLTLTEPGDRLLHHASRILGEVKDAEEGLQAVKDVEQGSITIGLISTSKYFAPKLLAGFTALHPGVDLRIAEGNRETLLRLLQDNAIDLALMGRPPRELDAVSEPIAAHPHVLVASPRHPLHDAKGFDLQELRHETFLLREPGSDTRTVAEYMFRDHLFTPAKVITLGSNETIKQAVMAGMGISLLSLHTLGLELRTGEIGLLDVAGTPIERIWHVAHMSSKRLSPASESCRAYLLEHTAEFLGREYGGLMPGRRVA ?
Result: 2634 nmol/min/mg of protein
